TEST: qHTS Screen of the MIPE 4.0 Collection Against Ewings Sarcoma (TC32) (AID 1259256); also: nearly all actives have a fitted effect of over 45% in size
STATED_CONDITIONS: TC32 Ewing sarcoma viability, CellTiter-Glo, 48 h; series mostly up to 45.8 µM
Results filed as inconclusive are left out. Activity calls are given as the source filed them. Calls follow the shape of the dose curve; as a rule, active = well fitted inhibition curve with a large enough effect; inconclusive = small, poorly fitted or top-dose-only effect; inactive = no such curve, though single readings can be large or run the other way.
Classes used: active, inactive

>>> cat("Cc1[nH]c(=O)c(C#N)cc1-c1ccncc1")
"inactive"
>>> cat("CCOc1ccn(-c2ccc(F)cc2)c(=O)c1C(=O)Nc1ccc(Oc2ccnc(N)c2Cl)c(F)c1")
"active"
>>> cat("N#Cc1ccc(C(c2ccc(C#N)cc2)n2cncn2)cc1")
"active"
>>> cat("C[C@]1(c2nc3c(C(N)=O)cccc3[nH]2)CCCN1")
"active"
>>> cat("O=C(O)COCCN1CCN(C(c2ccccc2)c2ccc(Cl)cc2)CC1 (stereo not given)")
"inactive"
>>> cat("Cc1cc2c(C(C)C)c(O)c(O)c(C=O)c2c(O)c1-c1c(C)cc2c(C(C)C)c(O)c(O)c(C=O)c2c1O")
"active"
>>> cat("CCCC(CCC)C(=O)O")
"inactive"
>>> cat("CC(C)C[C@H](NC(=O)[C@@H](O)[C@H](N)Cc1ccccc1)C(=O)O")
"active"
>>> cat("CCCS(=O)(=O)Nc1ccc(F)c(C(=O)c2c[nH]c3ncc(-c4ccc(Cl)cc4)cc23)c1F")
"active"
>>> cat("CCc1cc(Nc2nccc(-c3c(-c4ccc(OC)c(C(=O)Nc5c(F)cccc5F)c4)nc4ccccn34)n2)c(OC)cc1N1CCC(N2CCN(S(C)(=O)=O)CC2)CC1")
"active"
>>> cat("Cc1cc(SCc2sc(-c3ccc(C(F)(F)F)cc3)nc2C)ccc1OCC(=O)O")
"active"
>>> cat("COc1ccc(CCN2CCN(CCCc3ccccc3)CC2)cc1OC")
"inactive"
>>> cat("COc1ccccc1[C@H](c1cccc2ccccc12)[C@@](C)(C#N)C(=O)N1CCC(c2cccc(C(F)(F)F)c2)CC1")
"active"
>>> cat("CCn1c(-c2nonc2N)nc2c(C#CC(C)(C)O)ncc(OC[C@H]3CCCNC3)c21")
"active"
>>> cat("CCn1cc(C(=O)O)c(=O)c2cc(F)c(N3CCNC(C)C3)c(F)c21 (stereo not given)")
"inactive"
>>> cat("Nc1cccc(S(=O)(=O)N2CCCN(S(=O)(=O)c3ccc4c(c3)OCCO4)CC2)c1")
"inactive"
>>> cat("COc1ccc(CC2=NN3C([C@@H](CCc4ccccc4)[C@@H](C)O)=NC(C)C3C(=O)N2)cc1OC (stereo not given in full)")
"inactive"
>>> cat("Cc1cc2c(F)c(Oc3ncnn4cc(OC[C@@H](C)O)c(C)c34)ccc2[nH]1")
"active"
>>> cat("Nc1nc2[nH]cc(CCc3ccc(C(=O)N[C@@H](CCC(=O)O)C(=O)O)cc3)c2c(=O)[nH]1")
"active"
>>> cat("O=c1[nH]cnc2[nH]ncc12")
"inactive"
